# protocol_conditions: in water, 312.95 K
measured_quantity: solubility (mole fraction)

Form field: reported solubility (mole fraction) of `O=C(O)CCCC(=O)O`
0.26

====

# protocol_conditions: in water, 322.25 K
measured_quantity: solubility (mole fraction)

Form field: reported solubility (mole fraction) of `O=C(O)CCCC(=O)O`
0.328

====

# protocol_conditions: in water, 318.05 K
measured_quantity: solubility (mole fraction)

Form field: reported solubility (mole fraction) of `O=C(O)CCCC(=O)O`
0.297

====

# protocol_conditions: in water, 292.95 K
measured_quantity: solubility (mole fraction)
Enter a number only.

Form field: reported solubility (mole fraction) of `O=C(O)CCCC(=O)O`
0.151

====

# protocol_conditions: in water, 297.85 K
measured_quantity: solubility (mole fraction)
Enter a number only.

Form field: reported solubility (mole fraction) of `O=C(O)CCCC(=O)O`
0.176
